Organism: Rattus norvegicus
Assay text: Open TG-GATES - Regimen: Single
Format: toxicity, organism-based, Sprague-Dawley
Set-up: regimen Single, gender Male, age 6 weeks
Protocol conditions: in vivo, po, 1000 mg/kg, 6 h, tissue Plasma, route gavage, dose level High
Field: AST. Provide a value for each of the compounds that follow.
A number alone suffices; assume IU/L.

AST for Clc1ccccc1CN1CCc2sccc2C1 is 69

AST for CCc1cc(C(N)=S)ccn1 [ETHIONAMIDE] is 74.8

AST for C[C@H](CS)C(=O)N1CCC[C@H]1C(=O)O is 57.6

AST for O=C(O)c1cn(C2CC2)c2cc(N3CCNCC3)c(F)cc2c1=O is 69.4

AST for O=C(O)c1cc(/N=N/c2ccc(S(=O)(=O)Nc3ccccn3)cc2)ccc1O is 66.4
